src = paper PMC5349906

- TARGET DESC: SUV39H1 (Homo sapiens)
- Construct: recombinant SUV39H1
- Sequence (O43463 whole entry): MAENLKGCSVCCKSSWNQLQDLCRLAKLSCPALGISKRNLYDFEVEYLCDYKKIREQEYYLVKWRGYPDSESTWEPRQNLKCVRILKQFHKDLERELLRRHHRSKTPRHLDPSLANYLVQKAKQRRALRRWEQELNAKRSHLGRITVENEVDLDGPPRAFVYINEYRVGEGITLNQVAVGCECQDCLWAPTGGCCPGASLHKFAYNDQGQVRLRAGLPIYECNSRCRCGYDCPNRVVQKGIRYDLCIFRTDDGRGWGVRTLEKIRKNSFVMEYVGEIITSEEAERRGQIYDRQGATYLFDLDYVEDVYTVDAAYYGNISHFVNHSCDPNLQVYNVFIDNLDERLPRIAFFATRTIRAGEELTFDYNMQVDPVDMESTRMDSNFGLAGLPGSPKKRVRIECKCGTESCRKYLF
- EXPERIMENT DESCRIPTION: cell-free histone methyltransferase activity assay with recombinant enzyme (data not shown)
VALUE TYPE: IC50 (nM)
Answer in nM, number only, no unit symbol.

Observed IC50 on SUV39H1 (Homo sapiens), entry CN1C(=O)[C@@]23C[C@](C)(C#N)[C@H](c4ccc5c(c4)OCO5)N2C(=O)[C@]1(C)SS3 (racemic) , equals 1300
